Target: human RORγt ligand binding domain (RORγt LBD) (Homo sapiens (Human), UniProt P51449)
Sequence (P51449 other isoform, or with tags, fused parts or gaps): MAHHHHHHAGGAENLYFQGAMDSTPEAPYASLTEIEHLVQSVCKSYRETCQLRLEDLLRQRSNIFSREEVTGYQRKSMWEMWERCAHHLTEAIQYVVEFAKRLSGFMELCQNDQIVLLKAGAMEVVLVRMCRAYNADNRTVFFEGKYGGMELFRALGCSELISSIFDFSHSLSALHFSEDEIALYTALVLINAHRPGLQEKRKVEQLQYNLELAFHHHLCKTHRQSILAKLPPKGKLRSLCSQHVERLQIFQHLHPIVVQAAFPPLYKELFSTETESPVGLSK
Assay: RORγt ThermoFluor® assay (thermal shift binding)
Conditions: read-out: ThermoFluor® Assay, Kd
// values below are reported log10 Kd
Values are log10 of Kd in nM.

Use the examples below as a reference point.
{"compound": "CCn1nc(C(=O)NC[C@H]2CC[C@H](S(C)(=O)=O)CC2)c(Cl)c1-c1ccc(OCC2(C)CC2)cc1OC", "log10 Kd": 0.82}
{"compound": "Cc1c(C(=O)NC[C@]2(O)CC[C@@H](S(C)(=O)=O)CC2)nn(CC(C)(C)O)c1-c1ccc(CC(C)(C)C(F)(F)F)cc1OC(F)F", "log10 Kd": 1.18}
{"compound": "COc1cc(N[C@H](C)C(F)(F)F)ccc1-c1c(Cl)c(C(=O)NC[C@H]2CC[C@H](S(C)(=O)=O)CC2)nn1CC(C)C", "log10 Kd": 0.40}
{"compound": "CCn1nc(C(=O)NC[C@]2(C#N)CC[C@@H](S(C)(=O)=O)CC2)c(Cl)c1-c1ccc(N[C@H](C)C(F)(F)F)cc1OC", "log10 Kd": 0.88}
{"compound": "CCn1nc(C(=O)NC[C@H]2CC[C@H](S(=O)(=O)NC(N)=O)CC2)c(Cl)c1-c1ccc(CC(C)(C)C(F)(F)F)cc1OC(F)F", "log10 Kd": -0.54}
{"compound": "COc1cc(N[C@H](C)C(F)(F)F)ccc1-c1c(Cl)c(C(=O)NC[C@]2(O)CC[C@@H](S(C)(=O)=O)CC2)nn1C(C)(C)C", "log10 Kd": 0.87}

Okay, next one:
Name the recorded log10 Kd of the item CCn1nc(C(=O)NC[C@]2(O)CC[C@@H](S(C)(=O)=O)CC2)c(Cl)c1-c1ccc(CC(C)C(F)(F)F)cc1OC(F)(F)F (stereo partly shown) in your answer.
0.18

* * *

Molecular target: full-length human RORγt (Homo sapiens (Human), UniProt P51449)
Sequence (P51449 other isoform, or with tags, fused parts or gaps): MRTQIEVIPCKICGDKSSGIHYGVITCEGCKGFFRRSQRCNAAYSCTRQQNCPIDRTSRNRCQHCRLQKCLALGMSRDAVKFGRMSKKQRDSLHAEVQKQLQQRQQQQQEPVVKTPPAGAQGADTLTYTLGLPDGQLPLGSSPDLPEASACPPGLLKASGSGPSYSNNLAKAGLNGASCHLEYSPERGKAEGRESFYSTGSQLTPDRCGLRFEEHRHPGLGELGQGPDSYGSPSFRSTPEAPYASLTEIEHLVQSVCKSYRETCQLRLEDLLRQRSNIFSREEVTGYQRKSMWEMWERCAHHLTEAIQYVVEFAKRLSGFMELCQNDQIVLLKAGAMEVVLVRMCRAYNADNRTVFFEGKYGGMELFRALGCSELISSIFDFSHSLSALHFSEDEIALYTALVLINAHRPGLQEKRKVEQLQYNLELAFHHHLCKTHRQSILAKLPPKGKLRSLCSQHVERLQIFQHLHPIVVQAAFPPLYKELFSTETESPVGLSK
Assay: RORγt (full-length human) reporter assay, conditions A or B, HEK293T cells
Format: cell-based
Details: RORγt (FL) Reporter Assay A or B, IC50, HEK293T cells
observed_property: pIC50
// scale note: pIC50 = -log10(conc_M); give the bare number

Example results:
{"compound": "CCn1nc(C(=O)NC[C@H]2CC[C@H](S(C)(=O)=O)CC2)c(C#N)c1-c1ccc(CC(C)C(F)(F)F)cc1OC (stereo partly drawn)", "pIC50": 7.46}
{"compound": "CCn1nc(C(=O)NC[C@]2(O)CC[C@@H](S(C)(=O)=O)CC2)c(Cl)c1-c1ccc(CC(C(F)(F)F)C(F)(F)F)cc1OC", "pIC50": 8.59}

Now for another entry.
Give a short answer stating reported pIC50 for CCn1nc(C(=O)NC[C@]2(O)CC[C@@H](S(C)(=O)=O)C[C@H]2O)c(C)c1-c1ccc(C[C@H](C)C(F)(F)F)cc1OC(F)F (stereo in doubt) .
8.01

* * *

Quick list: Kd per entry.
Target: human RORγt ligand binding domain (RORγt LBD) (Homo sapiens (Human), UniProt P51449)
Test: RORγt ThermoFluor® assay (thermal shift binding)
Settings: read-out: ThermoFluor® Assay, Kd
Write the number in nM without appending the unit.

Use the examples below as a reference point.
{"compound": "CCn1nc(C(=O)NC[C@]2(O)CC[C@@H](S(C)(=O)=O)CC2)c(Cl)c1-c1ccc(CC(C(F)(F)F)C(F)(F)F)cc1OC [Example 85]", "observed_property": "Kd", "recorded_value": 0.43}
{"compound": "COc1cc(N[C@H](C)C(F)(F)F)ccc1-c1c(Cl)c(C(=O)NC[C@H]2CC[C@H](S(C)(=O)=O)CC2)nn1C(C)(C)C [Example 26]", "observed_property": "Kd", "recorded_value": 3.9}
{"compound": "COCCn1nc(C(=O)NC[C@]2(O)CC[C@@H](S(C)(=O)=O)CC2)c(Cl)c1-c1ccc(CC(C)(C)C(F)(F)F)cc1OC(F)F [Example 149]", "observed_property": "Kd", "recorded_value": 0.83}

Next, consider the following compound.
Tell me Kd reported for CCn1nc(C(=O)NC[C@]2(O)CC[C@@H](S(C)(=O)=O)CC2)c(Cl)c1-c1ccc(CC(C)(C)C(F)(F)F)cc1OC(F)F [Example 132]
0.45
